Recorded measurements of Inhibition (%) obtained by 5 × 10^-6 moles/lit. concentrations of the test compounds, one per entry
- Tested on: phosphodiesterase
- method: Inhibition of phosphodiesterase isolated from rat brain tissue (radioisotopic technique, tritium-labelled c-AMP)
- Type: biochemical
- measurement conditions: 20 minutes incubation, % of control
Structures can show the parent of a compound that is named as a salt.
Lab book: enter the figure in %, no units written.

Known Inhibition (%) obtained by 5 × 10^-6 moles/lit. concentrations of the test compounds results, listed for orientation:
molecule=CC[C@@]12C=C(C(=O)OC)n3c4c(c5ccccc53)CCN(CCC1)[C@H]42 display_unit=% value_reported=21.9
molecule="CC[C@@]12C=C(C(N)=O)n3c4c(c5ccccc53)CCN(CCC1)[C@H]42 [Apovincaminic acid amide]" display_unit=% value_reported=10.0
molecule="CC[C@@]12C=C(C(=O)OC)n3c4c(c5ccc(OC)cc53)CCN(CCC1)[C@H]42 [Apovincine-tartrate]" display_unit=% value_reported=38.1
molecule="CC[C@@]12C=C(COC(C)=O)n3c4c(c5ccc(OC)cc53)CCN(CCC1)[C@H]42 [Tartrate salt of apovincinol-acetate]" display_unit=% value_reported=30.9

Please examine the following record next.
## Input I am curious: what Inhibition (%) obtained by 5 × 10^-6 moles/lit. concentrations of the test compounds value has been reported for CC[C@@]12C=C(C(=O)OC)n3c4c(c5ccc(OC)cc53)CCN(CCC1)[C@H]42 [Apovincine-KHSO4] ?
## Output 36.6

---

- System: phosphodiesterase
- method: Inhibition of phosphodiesterase isolated from rat brain tissue (radioisotopic technique, tritium-labelled c-AMP)
- Format: biochemical
- measurement conditions: 5 × 10^-5 moles/lit.; 20 minutes incubation; % of control
Counter-ions that a name gives are not always drawn.
reported metric: Inhibition (%) obtained by 5 × 10^-5 moles/lit. concentrations of the test compounds
Lab book: enter the figure in %, no units written.

Known Inhibition (%) obtained by 5 × 10^-5 moles/lit. concentrations of the test compounds results, listed for orientation:
molecule="CC[C@@]12C=C(C(=O)OC)n3c4c(c5ccc(OC)cc53)CCN(CCC1)[C@H]42 [Apovincine-KHSO4]" tested_on=phosphodiesterase value_reported=59.4
molecule="CC[C@@]12C=C(C(=O)OC)n3c4c(c5ccc(OC)cc53)CCN(CCC1)[C@H]42 [Apovincine-tartrate]" tested_on=phosphodiesterase value_reported=76.9
molecule="CC[C@@]12C=C(COC(C)=O)n3c4c(c5ccc(OC)cc53)CCN(CCC1)[C@H]42 [Tartrate salt of apovincinol-acetate]" tested_on=phosphodiesterase value_reported=45.2
molecule="CC[C@@]12C=C(C(N)=O)n3c4c(c5ccccc53)CCN(CCC1)[C@H]42 [Apovincaminic acid amide]" tested_on=phosphodiesterase value_reported=60.0
molecule="CC[C@@]12C=C(C(=O)NN)n3c4c(c5ccccc53)CCN(CCC1)[C@H]42 [Apovincaminic acid-hydrazide, apovincaminic acid hydrazide]" tested_on=phosphodiesterase value_reported=32.0

## Input Form: Entry = CCOC(=O)C1=C[C@]2(CC)CCCN3CCc4c(n1c1cc(OC)ccc41)[C@@H]32 [Apovincinic acid ethyl ester tartrate] | System = phosphodiesterase | Inhibition (%) obtained by 5 × 10^-5 moles/lit. concentrations of the test compounds = ____
## Output 44.0

## Input Form: Entry = COc1ccc(Cc2nccc3cc(OC)c(OC)cc23)cc1OC [Papaverine, reference compound] | System = phosphodiesterase | Inhibition (%) obtained by 5 × 10^-5 moles/lit. concentrations of the test compounds = ____
## Output 36.4

## Input Form: Entry = CC[C@@]12C=C(C(=O)OC)n3c4c(c5ccccc53)CCN(CCC1)[C@H]42 | System = phosphodiesterase | Inhibition (%) obtained by 5 × 10^-5 moles/lit. concentrations of the test compounds = ____
## Output 33.5
